tested on: JCK; assay: qHTS profiling for inhibitors of Plasmodium falciparum proliferation (AID 504749); further: nearly all actives have a fitted effect of over 60% in size; settings: P. falciparum in erythrocytes, SYBR Green DNA, 72 h; series mostly up to 12.8 µM
Records with an inconclusive call do not appear. Active and inactive are the calls of the source. The call rests on the fitted dose curve; in most records, active means well fitted inhibition curve with a large enough effect; inconclusive means small, poorly fitted or top-dose-only effect; inactive means flat fitted curve, though single readings scatter.
Output constraint: value belongs to true for active, false for inactive

* CO[C@H]1[C@@H](OC(N)=O)[C@H](O)[C@@H](Oc2ccc3c(O)c(NC(=O)c4ccc(O)c(CC=C(C)C)c4)c(=O)oc3c2C)OC1(C)C | false
* c1ccc2c(c1)CCC[C@@H]2C1=NCCN1 | false
* C=CCOc1ccccc1OC[C@H](O)CNC(C)C | false
* C=CCN1C(=CCO)[C@H]2C[C@H]3[C@@H]1CC[C@@]31c3ccccc3N3C=C4[C@@H]5N(/C=C/2[C@H]31)c1ccccc1[C@]51CC[C@H]2[C@H]1C[C@@H]4/C(=C/CO)N2CC=C | false
* C[C@@H]1O[C@H](O[C@@H]2\C=C/C=C\C=C/C=C\C[C@H](C)OC(=O)/C=C\[C@H]3O[C@@H]3C[C@H](O)C[C@]3(O)C[C@@H](O)[C@@H](C(=O)O)[C@H](C2)O3)[C@@H](O)[C@H](N)[C@@H]1O (stereo in doubt) | false
* NC[C@@H]1O[C@@H](O[C@H]2[C@H](O)[C@H](O[C@@H]3O[C@H](CO)[C@@H](O)[C@H](N)[C@@H]3O)[C@@H](N)C[C@H]2N)[C@H](N)C[C@@H]1O | false

Query: Test call, this compound: CC(=O)O[C@]1(C(C)=O)CC[C@@H]2[C@@H]3C=C(C)C4=CC(=O)CC[C@@]4(C)[C@H]3CC[C@]21C
Result: false

Query: Test call, this compound: CO[C@]1(NC(=O)C2SC(=C(C(N)=O)C(=O)O)S2)C(=O)N2C(C(=O)O)=C(CSc3nnnn3C)CS[C@H]21 (some centres undefined)
Result: false

Query: Test call, this compound: CC[C@H]1NC(=O)c2cc(S(N)(=O)=O)c(Cl)cc2N1
Result: false

Query: Test call, this compound: C/C1=C2N=C(/C=C3N=C(/C(C)=C4\[N-]C(C)(C5N=C1C(C)(CCC(=O)NCC(C)OP(=O)([O-])O[C@H]1C(O)C(n6cnc7cc(C)c(C)cc76)O[C@@H]1CO)C5CC(N)=O)C(C)(CC(N)=O)C4CCC(N)=O)C(C)(CC(N)=O)C\3CCC(N)=O)C(C)(C)C/2CCC(N)=O.[CH2-]C1OC(n2cnc3c(N)ncnc32)C(O)C1O.[Co] (some centres undefined)
Result: false

Query: Test call, this compound: CN(C/C=C\c1ccccc1)Cc1cccc2ccccc12
Result: false

Query: Test call, this compound: CCN[C@@H]1CN(CCCOC)S(=O)(=O)c2sc(S(N)(=O)=O)cc21
Result: false

Query: Test call, this compound: CC1(C)SC2C(N3C(=O)C(c4ccccc4)NC3(C)C)C(=O)N2C1C(=O)O (centres undefined)
Result: false

Query: Test call, this compound: COc1cc(C2c3cc4c(cc3C(O[C@@H]3OC5COC(c6cccs6)OC5C(O)C3O)C3COC(=O)C23)OCO4)cc(OC)c1O (some centres undefined)
Result: true

---

system: ATS95; assay: qHTS profiling for inhibitors of Plasmodium falciparum proliferation (AID 504749); further: nearly all actives have a fitted effect of over 60% in size; settings: P. falciparum in erythrocytes, SYBR Green DNA, 72 h; series mostly up to 12.8 µM
Inconclusive results are not listed. The source made the active and inactive calls. Calls come from the whole dose curve; as a rule, active = well fitted inhibition curve with a large enough effect; inconclusive = small, poorly fitted or top-dose-only effect; inactive = flat fitted curve, though single readings scatter.
recorded-endpoint: outcome

Use these answered entries as a reference point.
* O=C(O)COCCN1CCN([C@@H](c2ccccc2)c2ccc(Cl)cc2)CC1 | inactive
* CCN[C@@H]1CN(CCCOC)S(=O)(=O)c2sc(S(N)(=O)=O)cc21 | inactive
* N[C@@H]1C(O)OC(CO)C(O)C1O (some centres undefined) | inactive
* CC1C2CCC3C4CC=C5CC(N(C)C)CC[C@@]5(C)C4CC[C@@]32CN1C (some centres undefined) | inactive
* CC(=O)N(C[C@@H](C)C(=O)O)c1c(I)cc(I)c(N)c1I | inactive

Could you now look at the following compound, please?
So, CC(=O)N[C@H](CC(C)C)C(=O)O ? Its outcome was inactive
